Answer each item with its documented pIC50.
- testedSystem: HLA-DR DRB1*0901 (DR9) (Homo sapiens, UniProt P01903+P01911, A100R/A103E/D57H/D86V/F55Y/F60I/F76Y/I96F/K127E/L162R/M171V/P40D/Q125H/Q99R/R33Q/R42F/S133A/S66N/T210M/V115G/W38K/Y107V/Y59G/Y89S)
- assayText: biochemical
- Type: binding
- statedConditions: DRB1 *0901
// returns pIC50 (minus log10 of molar concentration), number only

Just so you know, measured pIC50 for CC(C)C[C@H](NC(=O)CNC(=O)[C@H](CC(N)=O)NC(=O)[C@H](Cc1ccc(O)cc1)NC(=O)[C@@H](NC(=O)[C@H](CC(=O)O)NC(=O)[C@@H](N)CC(C)C)C(C)C)C(=O)N[C@@H](CC(C)C)C(=O)N1CCC[C@H]1C(=O)N1CCC[C@H]1C(=O)N[C@@H](Cc1ccc(O)cc1)C(=O)N[C@@H](C)C(=O)N[C@@H](CO)C(=O)N[C@@H](CS)C(=O)N[C@@H](Cc1c[nH]cn1)C(=O)O came out at 4.50

Sure, the documented pIC50 for CC[C@H](C)[C@H](NC(=O)CNC(=O)[C@H](CC(C)C)NC(=O)[C@H](CC(C)C)NC(=O)[C@H](CCCNC(=N)N)NC(=O)[C@H](CO)NC(=O)[C@@H](NC(=O)[C@H](Cc1ccc(O)cc1)NC(=O)[C@@H]1CCCN1C(=O)[C@H](CO)NC(=O)CNC(=O)[C@@H](NC(=O)CN)C(C)C)C(C)C)C(=O)N[C@@H](CS)C(=O)N[C@@H](CC(C)C)C(=O)O is 5.58

What the record says about CSCC[C@H](NC(=O)CNC(=O)CNC(=O)[C@H](CCCNC(=N)N)NC(=O)[C@@H](NC(=O)[C@H](CCC(N)=O)NC(=O)[C@H](C)NC(=O)[C@@H](NC(=O)[C@@H](NC(=O)[C@H](CC(C)C)NC(=O)[C@H](Cc1c[nH]cn1)NC(=O)[C@H](Cc1ccc(O)cc1)NC(=O)[C@@H](N)CCCCN)[C@@H](C)O)C(C)C)C(C)C)C(=O)N[C@H](C(=O)N[C@@H](Cc1ccccc1)C(=O)O)C(C)C : pIC50 is 5.23
